Catalogue of normalized growth readings, one per entry.
experiment: chemical genetic growth profiling, strain panel (AID 1159580);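 note: tested at 20 µM; growth read once vehicle control cultures reached saturation at 30 °C; 1 = growth at the plate median or of vehicle wells; lower values mean less growth of the strain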; settings: S. cerevisiae deletion strains, growth OD, locus YJL166W, strain qcr8, active compounds read low
About 2,000 (36%) of roughly 5,500 compounds were called active. Inconclusive results (about 18%) are left out. Some of the results follow.
Answer as a number with no unit attached.

Worked examples follow.
CCC1(C)CC(=O)NC1=O (stereo not given): 0.974
O=C(O)c1ccccc1OP(=O)(O)O: 1.01

The measured normalized growth associated with "CC(=O)CC(=O)CCC(=O)O" reads 1.02

The measured normalized growth associated with "COc1ccc2cc1Oc1ccc(cc1)C[C@H]1c3cc(c(OC)cc3CCN1C)Oc1c(OC)c(OC)cc3c1[C@H](C2)N(C)CC3" reads 0.984

The measured normalized growth associated with CC(C(=O)O)c1ccc2c(c1)[nH]c1ccc(Cl)cc12 (stereo not given) reads 1

* * *

Catalogue of normalized growth readings, one per entry.
experiment: chemical genetic growth profiling, strain panel (AID 1159580);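 note: tested at 20 µM; growth read once vehicle control cultures reached saturation at 30 °C; 1 = growth at the plate median or of vehicle wells; lower values mean less growth of the strain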; conditions: S. cerevisiae deletion strains, growth OD, locus YDR297W, strain sur2, active compounds read low
Among all 5,500 compounds or so, about 2,000 (36%) were called active. Another 18% or so got no clear call; they are omitted. Some of the results follow.
Answer as a number with no unit attached.

Worked examples follow.
NC(N)=NOCC[C@H](N)C(=O)O: 1.01
COC(=O)C1[C@H]2C[C@H]3c4[nH]c5ccccc5c4CCN3C[C@@H]2CC[C@@H]1O (stereo partly drawn): 0.979

Now take the following molecule into account.
The measured normalized growth associated with "O=C(/C=C/c1ccccc1)O[C@H]1C[C@@H](O)[C@]2(O)C=CO[C@@H](O[C@@H]3O[C@H](CO)[C@@H](O)[C@H](O)[C@H]3O)[C@H]12" reads 1.02

* * *

experiment: chemical genetic growth profiling, strain panel (AID 1159580);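 note: tested at 20 µM; growth read once vehicle control cultures reached saturation at 30 °C; 1 = growth at the plate median or of vehicle wells; lower values mean less growth of the strain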; settings: S. cerevisiae deletion strains, growth OD, locus YKL068W, active compounds read low
Screen size: about 5,500 compounds; about 2,000 (36%) were called active. Inconclusive results (about 18%) are left out. The list shows a part of the results.
propertyLabel: normalized growth

Worked examples follow.
COc1ccc([C@@H]2CC(=O)c3c(O)cc(O)cc3O2)cc1O: 0.998 (inactive)
CC(C)N(C(=O)CCl)c1ccccc1: 1.04 (inactive)
COc1cc2c(cc1OC)C(=O)C(CC1CCN(Cc3ccccc3)CC1)C2 (centres undefined): 1 (inactive)
O=C1C[C@@H](c2ccc(O)cc2)Oc2cc(O)cc(O)c21: 0.998 (inactive)
COc1cc(O)c(C(=O)c2ccccc2)cc1O: 0.982 (inactive)

The measured normalized growth associated with "O=c1ccc2ccccc2o1" reads 1.01 (inactive)

The measured normalized growth associated with "NC/C=C/C(=O)O" reads 1.01 (inactive)

The measured normalized growth associated with CO[C@H]1C[C@H](O[C@H]2[C@H](C)[C@@H](OC3O[C@H](C)C[C@H](N(C)C)[C@H]3O)[C@@H](C)C[C@]3(CO3)C(=O)[C@H](C)[C@@H](O)[C@@H](C)[C@@H](C)OC(=O)[C@@H]2C)O[C@@H](C)[C@@H]1O (some centres undefined) reads 1 (inactive)

The measured normalized growth associated with "c1ccc(CN(CC2=NCCN2)c2ccccc2)cc1" reads 1 (inactive)

The measured normalized growth associated with "C1CCc2nnnn2CC1" reads 1.02 (inactive)

The measured normalized growth associated with CNC1(C)C2CCC(C2)C1(C)C (centres undefined) reads 0.989 (inactive)

The measured normalized growth associated with "C=CC(C)(C)c1c2c(c(O)c3c(=O)c4ccc(O)c(O)c4oc13)C=CC(C)(C)O2" reads 0.996 (inactive)

The measured normalized growth associated with COc1ccc(C2CC(=O)c3ccc(OC)cc3O2)cc1 (centres undefined) reads 0.97 (inactive)

The measured normalized growth associated with CCC1(C)CC(=O)NC1=O (centres undefined) reads 1.01 (inactive)

The measurements presented in this section are drawn from PubChem BioAssay AID1159580.
